tested on: ADR5000 cell line; assay: Cytotoxicity against human CEM/ADR5000 by XTT assay; type: functional, cell-based
Catalogue of molecules with associated IC50
PARAMETER: IC50 (µM)

- C=C(C)[C@@H]1CC[C@]2(COC(=O)CCC(=O)O[C@@H]3O[C@@H]4O[C@@]5(C)CC[C@H]6[C@H](C)CC[C@@H]([C@H]3C)[C@@]46OO5)CC[C@]3(C)[C@H](CC[C@@H]4[C@@]5(C)CC[C@H](OC(=O)CCC(=O)O[C@@H]6O[C@@H]7O[C@@]8(C)CC[C@H]9[C@H](C)CC[C@@H]([C@H]6C)[C@@]79OO8)C(C)(C)[C@@H]5CC[C@]43C)[C@@H]12: 42.1
- C=C(C)[C@@H]1CC[C@]2(COC(C)=O)CC[C@]3(C)[C@H](CC[C@@H]4[C@@]5(C)CC[C@H](OC(=O)CCC(=O)O[C@@H]6O[C@@H]7O[C@@]8(C)CC[C@H]9[C@H](C)CC[C@@H]([C@H]6C)[C@@]79OO8)C(C)(C)[C@@H]5CC[C@]43C)[C@@H]12: 20.8

From: ChEMBL document CHEMBL1177721
